# System: control iPSC-CMs
# measurement notes: MEA verapamil dose-response of spontaneous beating rate, control
# Type: cell-based
# experimental context: Homo sapiens, iPSC-CM, 10 min, 10 minutes at each dose
pIC50: −log10 of the molar value.
measurement name: pIC50

- COc1ccc(CCN(C)CCCC(C#N)(c2ccc(OC)c(OC)c2)C(C)C)cc1OC (stereo not shown): 6.99
